Data provenance: the NIST ThermoML archive (doi:10.1021/je400849a)

Measured refractive index by item
- procedure_details: refractive index (Na D-line) (dimensionless)
- reported_conditions: 323.15 K; 101.33 kPa; Liquid; Standard Abbe refractometry
// return a plain number; no unit text

# count of solved cases: 3
CCCCCCCCCCn1cc[n+](CCC#N)c1.O=C([O-])c1cccc(S(=O)(=O)O)c1 [3-(2-cyanoethyl)-1-decylimidazolium 3-sulfobenzoate]; 1.50582
CCCCn1cc[n+](CCC#N)c1.O=S(=O)([O-])c1ccccc1 [1-butyl-3-(2-cyanoethyl)-1H-imidazolium benzenesulfonate]; 1.52684
CCCCCCCCCCCCOS(=O)(=O)[O-].CCCCn1cc[n+](CCC#N)c1 [1-butyl-3-(2-cyanoethyl)-1H-imidazol-3-ium dodecyl sulfate]; 1.47842

IN: Could you share which refractive index value was measured for CCCCCCCCCCCCOS(=O)(=O)[O-].CCCCCCCCCCn1cc[n+](CCC#N)c1 [3-(2-cyanoethyl)-1-decylimidazolium dodecylsulfate] ?
OUT: 1.46678

###

- procedure_details: refractive index (Na D-line) (dimensionless)
- reported_conditions: 313.15 K; 101.33 kPa; Liquid; Standard Abbe refractometry
Measured refractive index by item
// return a plain number; no unit text

CCCCCCCCCCn1cc[n+](CCC#N)c1.O=C([O-])c1cccc(S(=O)(=O)O)c1 [3-(2-cyanoethyl)-1-decylimidazolium 3-sulfobenzoate]; 1.50871
CCCCn1cc[n+](CCC#N)c1.O=S(=O)([O-])c1ccccc1 [1-butyl-3-(2-cyanoethyl)-1H-imidazolium benzenesulfonate]; 1.52975
CCCCCCCCCCCCOS(=O)(=O)[O-].CCCCn1cc[n+](CCC#N)c1 [1-butyl-3-(2-cyanoethyl)-1H-imidazol-3-ium dodecyl sulfate]; 1.48232

IN: Could you share which refractive index value was measured for CCCCCCCCCCCCOS(=O)(=O)[O-].CCCCCCCCCCn1cc[n+](CCC#N)c1 [3-(2-cyanoethyl)-1-decylimidazolium dodecylsulfate] ?
OUT: 1.46972

###

- procedure_details: refractive index (Na D-line) (dimensionless)
- reported_conditions: 328.15 K; 101.33 kPa; Liquid; Standard Abbe refractometry
assay_endpoint: refractive index
// return a plain number; no unit text

# count of solved cases: 2
CCCCCCCCCCCCOS(=O)(=O)[O-].CCCCCCCCCCn1cc[n+](CCC#N)c1 [3-(2-cyanoethyl)-1-decylimidazolium dodecylsulfate]; 1.46532
CCCCCCCCCCCCOS(=O)(=O)[O-].CCCCn1cc[n+](CCC#N)c1 [1-butyl-3-(2-cyanoethyl)-1H-imidazol-3-ium dodecyl sulfate]; 1.47695

IN: Could you share which refractive index value was measured for CCCCn1cc[n+](CCC#N)c1.O=S(=O)([O-])c1ccccc1 [1-butyl-3-(2-cyanoethyl)-1H-imidazolium benzenesulfonate] ?
OUT: 1.52544

IN: Could you share which refractive index value was measured for CCCCCCCCCCn1cc[n+](CCC#N)c1.O=C([O-])c1cccc(S(=O)(=O)O)c1 [3-(2-cyanoethyl)-1-decylimidazolium 3-sulfobenzoate] ?
OUT: 1.5045

###

Measured mass density by item
- reported_conditions: 333.15 K; 101.33 kPa; Liquid; Vibrating tube method
Your answer should be a plain number; it is taken to be in kg/m3.

CCCCCCCCCCn1cc[n+](CCC#N)c1.O=C([O-])c1cccc(S(=O)(=O)O)c1 [3-(2-cyanoethyl)-1-decylimidazolium 3-sulfobenzoate]; 1109.5
CCCCCCCCCCCCOS(=O)(=O)[O-].CCCCCCCCCCn1cc[n+](CCC#N)c1 [3-(2-cyanoethyl)-1-decylimidazolium dodecylsulfate]; 1032.5
CCCCn1cc[n+](CCC#N)c1.O=S(=O)([O-])c1ccccc1 [1-butyl-3-(2-cyanoethyl)-1H-imidazolium benzenesulfonate]; 1213.5

Could you now consider this next molecule?
IN: Could you share which mass density value was measured for CCCCCCCCCCCCOS(=O)(=O)[O-].CCCCn1cc[n+](CCC#N)c1 [1-butyl-3-(2-cyanoethyl)-1H-imidazol-3-ium dodecyl sulfate] ?
OUT: 1097.7

###

- reported_conditions: 348.15 K; 101.33 kPa; Liquid
± gives the expanded uncertainty stated by the source.
assay_endpoint: viscosity
Reply with a number, then the unit it belongs to.

# count of solved cases: 3
CCCCn1cc[n+](CCC#N)c1.O=S(=O)([O-])c1ccccc1 [1-butyl-3-(2-cyanoethyl)-1H-imidazolium benzenesulfonate]; 54 ± 1 mPa·s
CCCCCCCCCCn1cc[n+](CCC#N)c1.O=C([O-])c1cccc(S(=O)(=O)O)c1 [3-(2-cyanoethyl)-1-decylimidazolium 3-sulfobenzoate]; 294 ± 15 mPa·s
CCCCCCCCCCCCOS(=O)(=O)[O-].CCCCCCCCCCn1cc[n+](CCC#N)c1 [3-(2-cyanoethyl)-1-decylimidazolium dodecylsulfate]; 418 ± 25 mPa·s

IN: Could you share which viscosity value was measured for CCCCCCCCCCCCOS(=O)(=O)[O-].CCCCn1cc[n+](CCC#N)c1 [1-butyl-3-(2-cyanoethyl)-1H-imidazol-3-ium dodecyl sulfate] ?
OUT: 114 ± 3 mPa·s

###

- reported_conditions: 353.15 K; 101.33 kPa; Liquid; Vibrating tube method
assay_endpoint: mass density (kg/m3)
Your answer should be a plain number; it is taken to be in kg/m3.

# count of solved cases: 3
CCCCn1cc[n+](CCC#N)c1.O=S(=O)([O-])c1ccccc1 [1-butyl-3-(2-cyanoethyl)-1H-imidazolium benzenesulfonate]; 1201.3
CCCCCCCCCCn1cc[n+](CCC#N)c1.O=C([O-])c1cccc(S(=O)(=O)O)c1 [3-(2-cyanoethyl)-1-decylimidazolium 3-sulfobenzoate]; 1095.8
CCCCCCCCCCCCOS(=O)(=O)[O-].CCCCCCCCCCn1cc[n+](CCC#N)c1 [3-(2-cyanoethyl)-1-decylimidazolium dodecylsulfate]; 1023.9

Could you now consider this next molecule?
IN: Could you share which mass density value was measured for CCCCCCCCCCCCOS(=O)(=O)[O-].CCCCn1cc[n+](CCC#N)c1 [1-butyl-3-(2-cyanoethyl)-1H-imidazol-3-ium dodecyl sulfate] ?
OUT: 1082.2

###

Measured mass density by item
- reported_conditions: 338.15 K; 101.33 kPa; Liquid; Vibrating tube method
Your answer should be a plain number; it is taken to be in kg/m3.

# count of solved cases: 3
CCCCCCCCCCCCOS(=O)(=O)[O-].CCCCCCCCCCn1cc[n+](CCC#N)c1 [3-(2-cyanoethyl)-1-decylimidazolium dodecylsulfate]; 1029.9
CCCCn1cc[n+](CCC#N)c1.O=S(=O)([O-])c1ccccc1 [1-butyl-3-(2-cyanoethyl)-1H-imidazolium benzenesulfonate]; 1210.1
CCCCCCCCCCn1cc[n+](CCC#N)c1.O=C([O-])c1cccc(S(=O)(=O)O)c1 [3-(2-cyanoethyl)-1-decylimidazolium 3-sulfobenzoate]; 1105.9

Could you now consider this next compound?
IN: Could you share which mass density value was measured for CCCCCCCCCCCCOS(=O)(=O)[O-].CCCCn1cc[n+](CCC#N)c1 [1-butyl-3-(2-cyanoethyl)-1H-imidazol-3-ium dodecyl sulfate] ?
OUT: 1093.6

###

- reported_conditions: 333.15 K; 101.33 kPa; Liquid
assay_endpoint: viscosity (mPa·s)
Your answer should be a plain number; it is taken to be in mPa·s.

# count of solved cases: 3
CCCCCCCCCCCCOS(=O)(=O)[O-].CCCCn1cc[n+](CCC#N)c1 [1-butyl-3-(2-cyanoethyl)-1H-imidazol-3-ium dodecyl sulfate]; 338
CCCCCCCCCCCCOS(=O)(=O)[O-].CCCCCCCCCCn1cc[n+](CCC#N)c1 [3-(2-cyanoethyl)-1-decylimidazolium dodecylsulfate]; 1252
CCCCCCCCCCn1cc[n+](CCC#N)c1.O=C([O-])c1cccc(S(=O)(=O)O)c1 [3-(2-cyanoethyl)-1-decylimidazolium 3-sulfobenzoate]; 944

Could you now consider this next compound?
IN: Could you share which viscosity value was measured for CCCCn1cc[n+](CCC#N)c1.O=S(=O)([O-])c1ccccc1 [1-butyl-3-(2-cyanoethyl)-1H-imidazolium benzenesulfonate] ?
OUT: 152

###

- reported_conditions: 323.15 K; 101.33 kPa; Liquid
Measured viscosity by item
Your answer should be a plain number; it is taken to be in mPa·s.

# count of solved cases: 3
CCCCCCCCCCn1cc[n+](CCC#N)c1.O=C([O-])c1cccc(S(=O)(=O)O)c1 [3-(2-cyanoethyl)-1-decylimidazolium 3-sulfobenzoate]; 1977
CCCCn1cc[n+](CCC#N)c1.O=S(=O)([O-])c1ccccc1 [1-butyl-3-(2-cyanoethyl)-1H-imidazolium benzenesulfonate]; 321
CCCCCCCCCCCCOS(=O)(=O)[O-].CCCCn1cc[n+](CCC#N)c1 [1-butyl-3-(2-cyanoethyl)-1H-imidazol-3-ium dodecyl sulfate]; 768

IN: Could you share which viscosity value was measured for CCCCCCCCCCCCOS(=O)(=O)[O-].CCCCCCCCCCn1cc[n+](CCC#N)c1 [3-(2-cyanoethyl)-1-decylimidazolium dodecylsulfate] ?
OUT: 2583

###

Measured refractive index by item
- procedure_details: refractive index (Na D-line) (dimensionless)
- reported_conditions: 308.15 K; 101.33 kPa; Liquid; Standard Abbe refractometry
± gives the expanded uncertainty stated by the source.

# count of solved cases: 3
CCCCn1cc[n+](CCC#N)c1.O=S(=O)([O-])c1ccccc1 [1-butyl-3-(2-cyanoethyl)-1H-imidazolium benzenesulfonate]; 1.53113 ± 0.00061
CCCCCCCCCCCCOS(=O)(=O)[O-].CCCCn1cc[n+](CCC#N)c1 [1-butyl-3-(2-cyanoethyl)-1H-imidazol-3-ium dodecyl sulfate]; 1.48443 ± 0.00059
CCCCCCCCCCn1cc[n+](CCC#N)c1.O=C([O-])c1cccc(S(=O)(=O)O)c1 [3-(2-cyanoethyl)-1-decylimidazolium 3-sulfobenzoate]; 1.50998 ± 0.00071

IN: Could you share which refractive index value was measured for CCCCCCCCCCCCOS(=O)(=O)[O-].CCCCCCCCCCn1cc[n+](CCC#N)c1 [3-(2-cyanoethyl)-1-decylimidazolium dodecylsulfate] ?
OUT: 1.47142 ± 0.00068
